Entry source: patent US20070134231A1

// Concentration Range Tested That Did Not Prevent Precipitation at pH of About 7.4 lookup, one value per entry
Tested Target: human plasmin (Homo sapiens)
Construct: which cleave a single-chain plasminogen molecule at the Arg^560 -Val^561 peptide bond, producing active plasmin; purchased Talecris, Inc. (Research Triangle Park, North Carolina)
Test Protocol: Plasmin precipitation study in buffer solutions (PBS, pH of about 7.4)
Assay type: physicochemical
Measurement Parameters: plasmin 1 mg/ml, observed within 2 hours

These recorded examples may help you get a feel for the data.
NCC(=O)O	0.1 M
O=C(O)CCCCC(=O)O	50 mM

Q) Give the reported value of Concentration Range Tested That Did Not Prevent Precipitation at pH of About 7.4 for this record: `CN(C)CC(=O)O`
A) 0.5-1 M

---

Tested Target: human plasmin (Homo sapiens, UniProt P00747)
Construct: which cleave a single-chain plasminogen molecule at the Arg^560 -Val^561 peptide bond, producing active plasmin; purchased Talecris, Inc. (Research Triangle Park, North Carolina)
Sequence (P00747 97-580 limits assumed): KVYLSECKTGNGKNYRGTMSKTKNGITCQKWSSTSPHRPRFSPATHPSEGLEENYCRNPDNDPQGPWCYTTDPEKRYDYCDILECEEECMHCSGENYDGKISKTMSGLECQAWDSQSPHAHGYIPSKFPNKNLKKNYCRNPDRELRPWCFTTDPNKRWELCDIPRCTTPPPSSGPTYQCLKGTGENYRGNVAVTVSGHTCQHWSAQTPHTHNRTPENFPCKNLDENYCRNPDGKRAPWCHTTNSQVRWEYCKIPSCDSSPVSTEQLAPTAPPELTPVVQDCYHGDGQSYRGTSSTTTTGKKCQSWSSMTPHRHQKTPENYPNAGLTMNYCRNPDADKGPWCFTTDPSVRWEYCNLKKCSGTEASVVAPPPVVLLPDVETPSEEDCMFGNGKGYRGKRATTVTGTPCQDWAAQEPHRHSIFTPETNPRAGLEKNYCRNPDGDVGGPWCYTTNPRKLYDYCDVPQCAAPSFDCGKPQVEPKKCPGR
Sequence (P00747 581-810 limits assumed): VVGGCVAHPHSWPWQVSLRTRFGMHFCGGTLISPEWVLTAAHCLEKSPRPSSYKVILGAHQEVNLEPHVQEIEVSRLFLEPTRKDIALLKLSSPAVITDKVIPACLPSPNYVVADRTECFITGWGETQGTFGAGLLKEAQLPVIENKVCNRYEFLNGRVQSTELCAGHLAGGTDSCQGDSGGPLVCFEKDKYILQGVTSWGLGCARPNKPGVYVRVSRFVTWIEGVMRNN
Test Protocol: Plasmin precipitation study in buffer solutions (PBS, pH of about 7.4)
Assay type: physicochemical
Measurement Parameters: plasmin 1 mg/ml, observed within 2 hours
Assay Readout: Concentration Range Tested That Did Not Prevent Precipitation at pH of About 7.4 (%)

I: OC[C@H]1O[C@H](O[C@H]2O[C@H](CO)[C@@H](O)[C@H](O)[C@H]2O)[C@H](O)[C@@H](O)[C@@H]1O [trehalose]
II: CSCC[C@H](N)C(=O)O [L-methionine]
Q) Smaller Concentration Range Tested That Did Not Prevent Precipitation at pH of About 7.4 value? Options are I and II Mark your selection by writing its label.
A) II
(II: 0.2%, I: 10%)

---

In this section, each of the molecules is paired with its reported Concentration Range Tested That Did Not Prevent Precipitation at pH of About 7.4.
Tested Target: human plasmin (Homo sapiens)
Construct: which cleave a single-chain plasminogen molecule at the Arg^560 -Val^561 peptide bond, producing active plasmin; purchased Talecris, Inc. (Research Triangle Park, North Carolina)
Test Protocol: Plasmin precipitation study in buffer solutions (PBS, pH of about 7.4)
Format: physicochemical
Measurement Parameters: plasmin 1 mg/ml, observed within 2 hours

Known Concentration Range Tested That Did Not Prevent Precipitation at pH of About 7.4 results, listed for orientation:
CC(O)CO (stereo not drawn)	2-20% v/v
O=S(=O)([O-])[O-].[Na+].[Na+] [sodium sulfate]	0.3-0.6 M

// below: Concentration Range Tested That Did Not Prevent Precipitation at pH of About 7.4 requested for another molecule
Q) Report measured Concentration Range Tested That Did Not Prevent Precipitation at pH of About 7.4; entry is `O=C(O)C(=O)O`
A) 50 mM
